# tgt: T1, PUF4 RNA-binding domain (Saccharomyces cerevisiae, UniProt P25339 537-888)
# T1 sequence: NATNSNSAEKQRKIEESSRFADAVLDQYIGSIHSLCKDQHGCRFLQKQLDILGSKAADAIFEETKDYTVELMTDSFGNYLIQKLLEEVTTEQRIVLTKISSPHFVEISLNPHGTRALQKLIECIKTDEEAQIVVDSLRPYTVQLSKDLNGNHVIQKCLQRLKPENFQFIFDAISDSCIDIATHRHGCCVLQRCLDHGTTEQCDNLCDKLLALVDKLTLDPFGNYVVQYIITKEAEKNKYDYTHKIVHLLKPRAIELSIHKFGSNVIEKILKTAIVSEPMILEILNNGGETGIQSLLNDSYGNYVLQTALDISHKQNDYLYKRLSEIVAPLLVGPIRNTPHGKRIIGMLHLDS
# run description: Mg; RNA-MaP; 20 mM Na-HEPES pH 7.4, 30 mM KOAc, 0.75 mM MgCl2, 0.1% Tween-20, 5% glycerol, 0.1 mg/mL BSA, 2 mM DTT; 25 C; 0.0125-409.6 nM protein
# condition summary: tags: N-His6-TEV cleaved; C-SNAP kept, Cy3B-labelled; label: tethered on chip by stalled RNA polymerase
measured property: pKd
Scale note: pKd = -log10(concentration in M).

A selection of reference data follows.
binder	pKd
Id_ii_S2_P4E.3_K4.2_C4.2_[C-2A]_[T-1A]_H4.2_A4.1_F4.1_T4.2_[G10T] (ssRNA) RNA: UUUGAUUAAUAUGAUAUCGUUCUUUCUAAUAUAUAUUAUUUUCUUUCUCGAUAUCAUAUUAAUCUUU	6.67
Ib_S2_P3E.1_K3.1_C3.1_H3.1_[G2C]_[A4T]_A3.1_F3.1_T3.1 (ssRNA) RNA: UUUGAUUAAUAUGAUAUCGUUCUUUCUUCUUUAUAUUCUUUCUCGAUAUCAUAUUAAUCUUU	5.78
UCUCUUUGUAGCAUUCUCUU (ssRNA) [Ic_S1_P3E.1_K3.1_C3.1_H3.1_A3.1_[T5G]_[A6C]_F3.1_[T7A]_[A8T]_T3.1]	7.37
Ic_S2_P3E.1_K3.1_C3.1_H3.1_A3.1_[A6C]_F3.1_[A8T]_T3.1 (ssRNA) RNA: UUUGAUUAAUAUGAUAUCGUUCUUUCUUGUAUCUUUUCUUUCUCGAUAUCAUAUUAAUCUUU	8.03

Then this binder:
Problem: Endpoint output: pKd of UCUCUUUGUAUAACAUUCUCUU (ssRNA) [Ic_S1_P5E.1_K5.1_C5.1_H5.1_A5.1_[T6A]_F5.1_[T8C]_[T9A]_[A10T]_T5.1] . Value?
Result: 7.90

Source: paper PMC9352680
